system: human CXCR4 (human, UniProt P61073 1-352)
Sequence (P61073 whole entry): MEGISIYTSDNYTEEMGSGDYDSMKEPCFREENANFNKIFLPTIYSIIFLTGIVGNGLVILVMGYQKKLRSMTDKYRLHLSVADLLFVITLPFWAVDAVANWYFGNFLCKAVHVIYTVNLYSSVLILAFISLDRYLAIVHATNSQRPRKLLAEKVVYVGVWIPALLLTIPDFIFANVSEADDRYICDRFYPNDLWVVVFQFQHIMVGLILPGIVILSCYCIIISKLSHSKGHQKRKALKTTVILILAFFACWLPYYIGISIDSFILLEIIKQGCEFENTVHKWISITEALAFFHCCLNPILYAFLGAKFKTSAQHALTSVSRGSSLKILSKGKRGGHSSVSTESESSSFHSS
assayComment: cell-based or functional assay
Bridges are numbered along the chain shown (N, C = ends). [ ]: non-standard residue; d: D form. 2Nal = N[C@@H](Cc1ccc2ccccc2c1)C(=O)O; Cit = NC(=O)NCCC[C@H](N)C(=O)O; Orn = NCCC[C@H](N)C(=O)O
Field: IC50 (nM) Ca2+ assay (method 2). Provide a value for each of the binders that follow.
One number for each entry, in nM.

| binder | IC50 (nM) Ca2+ assay (method 2) |
| --- | --- |
| cyclo(YR[Cit]CRG[dP]R[Orn]WCY[Cit]K[dP]P) (disulfide 4-11; SMILES N=C(N)NCCC[C@@H]1NC(=O)[C@@H]2CSSC[C@H](NC(=O)[C@H](Cc3c[nH]c4ccccc34)NC(=O)[C@H](CCCN)NC(=O)[C@H](CCCNC(=N)N)NC(=O)[C@H]3CCCN3C(=O)CNC1=O)C(=O)N[C@@H](Cc1ccc(O)cc1)C(=O)N[C@@H](CCCNC(N)=O)C(=O)N[C@@H](CCCCN)C(=O)N1CCC[C@@H]1C(=O)N1CCC[C@H]1C(=O)N[C@@H](Cc1ccc(O)cc1)C(=O)N[C@@H](CCCNC(=N)N)C(=O)N[C@@H](CCCNC(N)=O)C(=O)N2) [Example 117] | 3.4 |

Query string: For the binder shown here, cyclo(MR[Cit]CRG[dP]RR[2Nal]CYQK[dP]P) (disulfide 4-11; SMILES CSCC[C@@H]1NC(=O)[C@@H]2CCCN2C(=O)[C@H]2CCCN2C(=O)[C@H](CCCCN)NC(=O)[C@H](CCC(N)=O)NC(=O)[C@H](Cc2ccc(O)cc2)NC(=O)[C@@H]2CSSC[C@H](NC(=O)[C@H](CCCNC(N)=O)NC(=O)[C@H](CCCNC(=N)N)NC1=O)C(=O)N[C@@H](CCCNC(=N)N)C(=O)NCC(=O)N1CCC[C@@H]1C(=O)N[C@@H](CCCNC(=N)N)C(=O)N[C@@H](CCCNC(=N)N)C(=O)N[C@@H](Cc1ccc3ccccc3c1)C(=O)N2) [Example 91] , give the reported IC50 (nM) Ca2+ assay (method 2).
Result string: 2.1

Where do these numbers come from? They come from patent US20150087577A1.
